Numbers sourced from ChEMBL document CHEMBL1201862.

GI50: recorded values
test system: T47D; assay: NCI tumour cell line growth inhibition, 48 h
The source made the active and inactive calls. No stated cut-off is given here; in the data, active = GI50 up to about 1.1 µM and inactive = higher.

compound	GI50
CCc1n[nH]c(=O)n1/N=C/c1ccc(/C=N/n2c(CC)n[nH]c2=O)cc1	> 100 µM (inactive)
Oc1ccc(/C=N/NC(=S)Nc2cccnc2)nc1	8.69 µM (inactive)
CC1CCC2N(C1)CC1C3(O)CC45OC6(O)C(O)CCC4(C)C6CCC5C3(O)CC(O)C1(O)C2(C)O (centres undefined)	> 100 µM (inactive)
O=C(NCCCN(CCCCN(CCCNC(=O)C(F)(F)F)Cc1ccccc1)Cc1ccccc1)C(F)(F)F	17.7 µM (inactive)
COc1ccc(N2C(=O)[C@H]3[C@H]4CC(C(C)(C)C)CC[C@H]4c4c(n(C)c5ccccc45)[C@H]3C2=O)cc1 (some centres undefined)	> 100 µM (inactive)
C=C(C)[C@H]1[C@@H]2OC(=O)[C@H]1[C@]1(O)C[C@H]3OC34C(=O)O[C@H]2[C@@]41C.CC(C)(O)[C@H]1[C@@H]2OC(=O)[C@H]1[C@]1(O)C[C@H]3OC34C(=O)O[C@H]2[C@@]41C (some centres undefined)	> 100 µM (inactive)
CCCCCn1c(=O)c2c(=O)[nH][nH]c2c2ccccc21	> 100 µM (inactive)
C[C@@H]1C(=O)CC2(O)[C@@]13C[C@@H](OC(=O)[C@@H]3O)[C@@H](C)[C@@]21COC1=O (some centres undefined)	> 100 µM (inactive)
O=C(O)C1CC2(C1)CC(C(=O)O)C2 (centres undefined)	> 100 µM (inactive)
CNc1ncnc2c1cnn2CCCCO	> 100 µM (inactive)
CCOC(=O)N1CC2(C(=O)OC)C=CC1C(C(=O)OC)C2 (centres undefined)	> 100 µM (inactive)
c1cc(C2=NCCO2)c2ccsc2c1	> 100 µM (inactive)
O=c1oc2ccc(Cl)cc2cc1-c1cn2ccsc2n1	34.5 µM (inactive)
COc1cc(-c2nc3ccccn3c2/N=C/c2cc(Br)cc(Br)c2O)ccc1O	23.3 µM (inactive)

* * *

GI50: recorded values
system: HL-60; assay: NCI tumour cell line growth inhibition, 48 h
The source made the active and inactive calls. Cut-off read from the data, not from the text of the source: active = GI50 up to about 1.1 µM and inactive = higher.
attribute measured: GI50

                                    compound        readout_value
 0  CN/C=C(/c1ccc(OC)cc1)C(O)c1ccc(OC)c(OC)c1 (stereo unspecified)  > 100 µM (inactive)
 1  Cc1ccc(S(=O)(=O)c2c(N)n(CCN(C)C)c3nc4ccccc4nc23)cc1  > 100 µM (inactive)
 2                 CCn1cnc2c(=S)nc(N)[nH]c21  > 100 µM (inactive)
 3  CC1CC/C(=C\c2ccc(Cl)cc2)C2OC(N)=C(C#N)C(c3ccc(Cl)cc3)=C12 (stereo unspecified)   2.88 µM (inactive)
 4  O=C1c2ccccc2CC12Cc1ccc3c(c1C2)CCC3 (stereo unspecified)   12.6 µM (inactive)
 5  O=C(O)C(O)(c1ccc(-c2ccccc2)cc1)c1ccc(-c2ccccc2)cc1   21.5 µM (inactive)
 6  CN(C)CCNC(=O)c1cccc2ccc(-c3ccc(O)cc3)nc12    0.847 µM (active)
 7         Cc1cc2c(cc1Cl)SC(NNCCO)=NS2(=O)=O  > 100 µM (inactive)
 8  CC1(Cl)CC2OC3(Br)C=CC(C)(O)C2(CC1Br)C3(C)C (stereo unspecified)   51.1 µM (inactive)
 9               Cc1cc2c(s1)C(=O)c1sccc1C2=O   3.34 µM (inactive)
10  OCC(O)CNc1ccnc2cc(Cl)ccc12 (stereo unspecified)  > 100 µM (inactive)
11  CCCCc1ccc(Nc2nc(Cl)c3c(ncn3C3CC(Oc4ccc(C)cc4)C(COc4ccc(C)cc4)O3)n2)cc1 (stereo unspecified)   87.7 µM (inactive)
12  CC(C)(C)OC(=O)N(CCCCN(CCCNC(=O)C(F)(F)F)C(=O)OC(C)(C)C)CCCNC(=O)C(F)(F)F   60.3 µM (inactive)
13  CCOC(=O)CCC(C(=O)OCC)n1nnc2cc(Nc3c(C)[n+]([O-])c4cc(F)c(OCC)cc4[n+]3[O-])ccc21 (stereo unspecified)  > 100 µM (inactive)
14                CN(C)/C=N\c1nncc2[nH]nnc12   5.97 µM (inactive)
15  CC(=O)OC1CC2(C)C(=CC1C1SCCS1)CCC1C2CCC2(C)C(OC(C)=O)CCC12 (stereo unspecified)  > 100 µM (inactive)
16  O=C(c1ccccc1)C(C(=O)c1ccccc1)C1(O)C(=O)c2ccccc2C1=O   16.7 µM (inactive)
17  CN(C)CCNC(=O)c1cccc2c1Oc1c(cccc1[N+](=O)[O-])O2    0.306 µM (active)
18  CCOC(=O)NC(C(=O)OCC)C(F)(F)F (stereo unspecified)   23.9 µM (inactive)
19  FC(F)(F)c1ccc(C2ON=C(c3ccccc3)N2C23CC4CC(CC(C4)C2)C3)cc1 (stereo unspecified)   > 10 µM (inactive)
20  OC(Cc1cccc2ccccc12)CN1CCC(c2ccccc2)CC1 (stereo unspecified)   16.7 µM (inactive)
21  CN1CC[C@@]2(c3cccc(O)c3)CC(=O)/C(=C/c3ccc(Cl)c(Cl)c3)[C@H]1C2   1.52 µM (inactive)
22  Nc1ccc(Oc2ccc(C34CC5CC6C3CC3CC4C(C5)C6(c4ccc(Oc5ccc(N)cc5)cc4)C3)cc2)cc1   7.14 µM (inactive)
23      CC(=O)CCC(=O)CC(O)(C(F)(F)F)C(F)(F)F   18.5 µM (inactive)
24  CCOC(=O)C(/N=N\c1ccc(S(N)(=O)=O)cc1)C(C)=O (stereo unspecified)  > 100 µM (inactive)
25  CCCCCCCCCCCCCCCCCCNC(=O)C(N)Cc1ccc(OCc2ccccc2)cn1 (stereo unspecified)   15.7 µM (inactive)
26  O=C(OC(/C=C/c1ccccc1)P1(=O)N(Cc2ccccc2)[C@@H]2CCCC[C@H]2N1Cc1ccccc1)c1ccccc1 (stereo partly specified)   2.79 µM (inactive)
27         Cc1cc(O)c(C(C)C)cc1/N=C/c1ccccc1O    0.303 µM (active)
28  O=[N+]([O-])c1cccc(-c2csc(N/N=C3\NC/C(=C/c4ccc5c(c4)OCO5)S3)n2)c1   26.6 µM (inactive)
29        C/C(CCn1[nH]c(=O)ccc1=O)=N\N=C(N)N  > 100 µM (inactive)
30  CN[C@@H](Cc1cccc2ccccc12)C(=O)N[C@@H](CC(C)C)B(O)O   < 0.01 µM (active)
31  CCn1c2ccccc2c2cc(NC(=O)c3c(C)nc(O)nc3NCCNCCO)ccc21   1.58 µM (inactive)
32  OCC(O)COc1c(Cl)ccc(Cl)c1Cl (stereo unspecified)  > 100 µM (inactive)
33  COc1cccc(N(CN2C(=O)CCC2C(=O)O)C(C)=O)c1 (stereo unspecified)  > 100 µM (inactive)
34  CN(C)CCNC(=O)c1cccc2c1nc(-c1ccccn1)c1ccccc12   16.4 µM (inactive)
35          COc1cc(CNc2ccc(SC)cc2)cc(OC)c1OC   2.55 µM (inactive)
